Overview of reported pIC50 across a group of compounds:
# experimentalTarget: human PD-L1 / Human PD-1 (Homo sapiens (Human), UniProt Q9NZQ7)
# Sequence (Q9NZQ7 19-239): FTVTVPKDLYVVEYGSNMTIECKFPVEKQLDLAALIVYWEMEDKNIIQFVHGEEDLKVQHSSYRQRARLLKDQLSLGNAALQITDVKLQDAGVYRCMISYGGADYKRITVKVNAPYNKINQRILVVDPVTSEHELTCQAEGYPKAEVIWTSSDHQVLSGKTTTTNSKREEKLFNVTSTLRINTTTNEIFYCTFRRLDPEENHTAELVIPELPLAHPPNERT
# assayName: Enzyme-Linked Immunosorbent Assay (ELISA), PD-1/PD-L1 binding
# conditionDetails: plate-coated human PD-L1, biotinylated human PD-1, absorbance 450 nm
pIC50: −log10 of the molar value.

{"compound": "Cc1c(COc2cc3c(cc2Cl)CN[C@H](C(=O)O)CCCCNC(=O)CCCCO3)cccc1-c1ccccc1", "experimentalTarget": "human PD-L1 / Human PD-1 (Homo sapiens (Human), UniProt Q9NZQ7)", "pIC50": "6.30 to 7.00"}
{"compound": "Cc1c(COc2cc3c(cc2Cl)CN[C@H](C(=O)O)COCCNC(=O)c2cncc(c2)CO3)cccc1-c1ccccc1", "experimentalTarget": "human PD-L1 / Human PD-1 (Homo sapiens (Human), UniProt Q9NZQ7)", "pIC50": "6.30 to 7.00"}
{"compound": "O=C1NCCCC[C@@H](C(=O)O)NCc2cc(Cl)c(O[C@H]3CCc4c(-c5ccccc5F)cccc43)cc2OCc2cncc1c2", "experimentalTarget": "human PD-L1 / Human PD-1 (Homo sapiens (Human), UniProt Q9NZQ7)", "pIC50": "6.30 to 7.00"}
{"compound": "Cc1c(COc2cc3c(cc2Cl)CN[C@H](C(=O)O)CCCNC(=O)c2cncc(c2)CO3)cccc1-c1ccccc1", "experimentalTarget": "human PD-L1 / Human PD-1 (Homo sapiens (Human), UniProt Q9NZQ7)", "pIC50": "6.30 to 7.00"}
{"compound": "Cc1c(COc2cc3c(cc2Cl)CN[C@H](CO)CCCCNC(=O)c2cncc(c2)CO3)cccc1-c1cccc(OCCCN2CCC(F)CC2)c1C", "experimentalTarget": "human PD-L1 / Human PD-1 (Homo sapiens (Human), UniProt Q9NZQ7)", "pIC50": "> 7.00"}
{"compound": "Cc1c(COc2cc3c(cc2Cl)CN[C@H](C(=O)O)CCNC(=O)c2cncc(c2)CO3)cccc1-c1ccccc1", "experimentalTarget": "human PD-L1 / Human PD-1 (Homo sapiens (Human), UniProt Q9NZQ7)", "pIC50": "4.70 to 6.30"}
{"compound": "Cc1c(COc2cc3c(cc2Cl)CN[C@H](C(=O)O)CCCCNC(=O)c2cncc-3c2)cccc1-c1ccccc1", "experimentalTarget": "human PD-L1 / Human PD-1 (Homo sapiens (Human), UniProt Q9NZQ7)", "pIC50": "4.70 to 6.30"}
{"compound": "O=C1NCCCC[C@@H](C(=O)O)NCc2cc(Cl)c(O[C@H]3CCc4c(-c5ccc6c(c5F)OCCO6)cccc43)cc2OCc2cncc1c2", "experimentalTarget": "human PD-L1 / Human PD-1 (Homo sapiens (Human), UniProt Q9NZQ7)", "pIC50": "> 7.00"}
{"compound": "Cc1c(COc2cc3c(cc2Cl)CN[C@H](CC(=O)O)CCCCNC(=O)c2cncc(c2)CO3)cccc1-c1ccccc1", "experimentalTarget": "human PD-L1 / Human PD-1 (Homo sapiens (Human), UniProt Q9NZQ7)", "pIC50": "6.30 to 7.00"}
{"compound": "Cc1c(COc2cc3c(cc2Cl)CN[C@H](C(=O)O)CCCCNC(=O)c2cncc(c2)CO3)cccc1-c1cccc(OCCCN2CC(O)C2)c1C", "experimentalTarget": "human PD-L1 / Human PD-1 (Homo sapiens (Human), UniProt Q9NZQ7)", "pIC50": "> 7.00"}
{"compound": "Cc1c(COc2cc3c(cc2Cl)CN[C@H](C(=O)O)CCCCNC(=O)c2cncc(c2)CO3)cccc1-c1cccc(OCCCCl)c1C", "experimentalTarget": "human PD-L1 / Human PD-1 (Homo sapiens (Human), UniProt Q9NZQ7)", "pIC50": "4.70 to 6.30"}
{"compound": "Cc1c(COc2cc3c(cc2Cl)CN[C@H](C(=O)O)CCCCNC(=O)c2cncc(c2)CO3)cccc1-c1ccccc1F", "experimentalTarget": "human PD-L1 / Human PD-1 (Homo sapiens (Human), UniProt Q9NZQ7)", "pIC50": "> 7.00"}
{"compound": "Cc1c(COc2cc3c(cc2Cl)CN[C@H](C(=O)O)CCCCNC(=O)c2cncc(c2)CO3)cccc1-c1cccc(OCCCN2CCC(O)CC2)c1C", "experimentalTarget": "human PD-L1 / Human PD-1 (Homo sapiens (Human), UniProt Q9NZQ7)", "pIC50": "> 7.00"}
{"compound": "COc1cccc(-c2cccc(COc3cc4c(cc3Cl)CN[C@H](C(=O)O)CCCCNC(=O)c3cncc(c3)CO4)c2C)c1F", "experimentalTarget": "human PD-L1 / Human PD-1 (Homo sapiens (Human), UniProt Q9NZQ7)", "pIC50": "> 7.00"}
{"compound": "Cc1c(COc2cc3c(cc2Cl)CN[C@H](C(=O)O)CCCCNC(=O)c2cncc(c2)CO3)cccc1-c1ccc2c(c1)OCCO2", "experimentalTarget": "human PD-L1 / Human PD-1 (Homo sapiens (Human), UniProt Q9NZQ7)", "pIC50": "> 7.00"}
{"compound": "Cc1c(COc2cc3c(cc2Cl)CN[C@@H](CO)C(=O)NCCNC(=O)c2cncc(c2)CO3)cccc1-c1ccccc1", "experimentalTarget": "human PD-L1 / Human PD-1 (Homo sapiens (Human), UniProt Q9NZQ7)", "pIC50": "6.30 to 7.00"}
{"compound": "Cc1c(COc2cc3c(cc2Cl)CNC(CO)CCCCNC(=O)c2cncc(c2)CO3)cccc1-c1cccc(OCCCN2CC[C@@H](O)C2)c1C (single isomer, unassigned)", "experimentalTarget": "human PD-L1 / Human PD-1 (Homo sapiens (Human), UniProt Q9NZQ7)", "pIC50": "> 7.00"}
{"compound": "Cc1c(COc2cc3c(cc2Cl)CN[C@H](C(=O)O)CCCCNC(=O)c2cncc(c2)CO3)cccc1-c1ccccc1", "experimentalTarget": "human PD-L1 / Human PD-1 (Homo sapiens (Human), UniProt Q9NZQ7)", "pIC50": "> 7.00"}
{"compound": "Cc1c(COc2cc3c(cc2Cl)CN[C@H](C(=O)O)CCCCNC(=O)c2cc(C#N)cc(c2)CO3)cccc1-c1cccc(OCCCN2CCC(F)CC2)c1C", "experimentalTarget": "human PD-L1 / Human PD-1 (Homo sapiens (Human), UniProt Q9NZQ7)", "pIC50": "> 7.00"}

The reported numbers originate from patent US10392405B2.
